- Tested on: Fibroblast
- assay-comment: Multiplex assay against human fibroblast
- Type: toxicity, cell-based
- condition: 12 h, 1 µM, compound concentration 1 uM, replicate 1
measured-parameter: Total Cell Count

>>> measured_value("CNC(=O)Nc1ccc(-c2nc(N3CC4CCC(C3)O4)c3cnn(C4CCC5(CC4)OCCO5)c3n2)cc1")
85
>>> measured_value("CCc1nn(CCCN2CCN(c3cccc(Cl)c3)CC2)c(=O)n1CCOc1ccccc1.Cl [NEFAZODONE HYDROCHLORIDE]")
176
>>> measured_value("Cl.O=C(O)c1cc(-c2ccc(C3CCNCC3)cc2)c2ccc(-c3ccc(C(F)(F)F)cc3)cc2c1")
77
>>> measured_value("CC(C)c1noc(N2CCC(COc3ccc(-c4ccc(S(C)(=O)=O)cc4)nc3)CC2)n1")
128
>>> measured_value("C=CC(=O)Nc1cccc(Sc2nc(Nc3ccc(N4CCN(C)CC4)cc3)ncc2Cl)c1")
130
>>> measured_value("CC1=C(C(=O)Nc2cc3cn[nH]c3cc2F)C(c2ccc(C(F)(F)F)cc2)CC(=O)N1 (stereo unspecified)")
124

###

- Tested on: Fibroblast
- assay-comment: Multiplex assay against human fibroblast
- Type: toxicity, cell-based
- condition: 24 h, 1 µM, compound concentration 1 uM, replicate 2
measured-parameter: Population Healthy Nuclei (%)

>>> measured_value("COc1ccc(-c2ccc3ncc4c(c3c2)n(-c2ccc(N3CCNCC3)c(C(F)(F)F)c2)c(=O)n4C)cn1.O=C(O)/C=C\\C(=O)O")
"40%"
>>> measured_value("Cc1c[nH]c2nccc(Oc3c(F)cc(Nc4cc(Cl)nc(N)n4)cc3F)c12")
"71%"
>>> measured_value("CNC(=O)Nc1ccc2c(c1)[C@@]1(CC2)OC(=O)N(CC(=O)N(Cc2ccc(F)cc2)[C@@H](C)C(F)(F)F)C1=O")
"23%"
>>> measured_value("CCc1ccc(OCc2ccccc2C(=O)Nc2ccc3nc(C)cc(N)c3c2)cc1.Cl")
"28%"
>>> measured_value("CC(C)OC(=O)N1CCC(Oc2ncnc3c2cnn3-c2ccc(S(C)(=O)=O)cc2F)CC1")
"86%"

###

Listed below: Population Tubulin-Different-Phenotype (%) values for each entry.
- Test system: U2OS
- assay-comment: Multiplex assay against U2OS
- Type: toxicity, cell-based
- condition: human, 24 h, 1 µM, compound concentration 1 uM, replicate 2
measured-parameter: Population Tubulin-Different-Phenotype (%)

>>> measured_value("COc1cc2ncn(-c3cc(OCc4ccccc4C(F)(F)F)c(C(N)=O)s3)c2cc1OC [GW843682X]")
"17%"
>>> measured_value("COc1ccccc1CN[C@H]1C2CCN(CC2)[C@H]1C(c1ccccc1)c1ccccc1")
"17%"
>>> measured_value("CC(C)OC(=O)N1CCC(Oc2ncnc3c2cnn3-c2ccc(S(C)(=O)=O)cc2F)CC1")
"9%"
>>> measured_value("C[C@]12CC[C@@H]3c4ccc(O)cc4CC[C@H]3[C@@H]1CC[C@@H]2O")
"14%"
>>> measured_value("COc1ccc(-c2ccc3ncc4c(c3c2)n(-c2ccc(N3CCNCC3)c(C(F)(F)F)c2)c(=O)n4C)cn1.O=C(O)/C=C\\C(=O)O")
"91%"

###

- Test system: HEK-293T
- assay-comment: Multiplex assay against HEK293T;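 as to Population Tubulin-Different-Phenotype (%): share of the cells with healthy nuclei that show this phenotype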
- Type: toxicity, cell-based
- condition: human, 24 h, 10 µM, compound concentration 10 uM, replicate 1
Kindly return True if reported Population Tubulin-Different-Phenotype (%) is no lower than 90%; return False if it is lower.

>>> category("CN1CCN(Cc2ccc(Nc3ncc(Cl)c(Nc4ccccc4S(=O)(=O)N(C)C)n3)cc2)CC1")
"False"
>>> category("CC(C)OC(=O)N1CCC(Oc2ncnc3c2cnn3-c2ccc(S(C)(=O)=O)cc2F)CC1")
"False"
>>> category("COc1cc(Nc2nccc(-c3cnn4nc(OC)ccc34)n2)cc(C(F)(F)F)c1")
"False"
>>> category("Cc1ccc2c(c1)c1c(n2CCc2ccc(C)nc2)CCN(C)C1 [LATREPIRDINE]")
"True"

###

- System: Fibroblast
- assay-comment: Multiplex assay against human fibroblast
- Type: toxicity, cell-based
- condition: 24 h, 10 µM, compound concentration 10 uM, replicate 1
measured-parameter: Population Healthy Nuclei (%)

>>> measured_value("Cc1ccc2c(c1)c1c(n2CCc2ccc(C)nc2)CCN(C)C1 [LATREPIRDINE]")
51
>>> measured_value("COc1cc2ncn(-c3cc(OCc4ccccc4C(F)(F)F)c(C(N)=O)s3)c2cc1OC [GW843682X]")
41
>>> measured_value("Cc1ccc(C)c(Oc2ccncc2C(=O)N2CCN(C3CC3)c3ccccc32)c1")
51
>>> measured_value("CC(C)(C)NC[C@H](O)COc1nsnc1N1CCOCC1 [TIMOLOL]")
49
>>> measured_value("COc1ccc(-c2ccc3ncc4c(c3c2)n(-c2ccc(N3CCNCC3)c(C(F)(F)F)c2)c(=O)n4C)cn1.O=C(O)/C=C\\C(=O)O [BGT-226]")
32
>>> measured_value("CCc1ccc(OCc2ccccc2C(=O)Nc2ccc3nc(C)cc(N)c3c2)cc1.Cl")
48
>>> measured_value("COc1ccccc1CN[C@H]1C2CCN(CC2)[C@H]1C(c1ccccc1)c1ccccc1 [CP-96345]")
43
>>> measured_value("COc1cc(Nc2nccc(-c3cnn4nc(OC)ccc34)n2)cc(C(F)(F)F)c1")
21
>>> measured_value("Cc1ccccc1C(c1ccccc1C)N1C2CCC1CC(O)(c1ccccc1)C2 (stereo unspecified)")
47
>>> measured_value("O=c1cc(N2CCOCC2)oc2c(-c3cccc4c3sc3ccccc34)cccc12")
45
>>> measured_value("CC1=C(C(=O)Nc2cc3cn[nH]c3cc2F)C(c2ccc(C(F)(F)F)cc2)CC(=O)N1 (stereo unspecified)")
54
>>> measured_value("CCc1nn(CCCN2CCN(c3cccc(Cl)c3)CC2)c(=O)n1CCOc1ccccc1.Cl [NEFAZODONE HYDROCHLORIDE]")
58
>>> measured_value("CC(C)OC(=O)N1CCC(Oc2ncnc3c2cnn3-c2ccc(S(C)(=O)=O)cc2F)CC1")
48
>>> measured_value("O=c1[nH]c2ccccc2n1C1CCN(Cc2ccc(-c3[nH]c4cc5ncnc5cc4nc3-c3ccccc3)cc2)CC1")
45
>>> measured_value("C=CC(=O)Nc1cccc(Sc2nc(Nc3ccc(N4CCN(C)CC4)cc3)ncc2Cl)c1")
50
>>> measured_value("C[C@]12CC[C@@H]3c4ccc(O)cc4CC[C@H]3[C@@H]1CC[C@@H]2O [ESTRADIOL]")
60

###

- Test system: HEK-293T
- assay-comment: Multiplex assay against HEK293T
- Type: toxicity, cell-based
- condition: human, 12 h, 10 µM, compound concentration 10 uM, replicate 1
measured-parameter: Population Mitotic Cells (%)

>>> measured_value("COc1cc(Nc2nccc(-c3cnn4nc(OC)ccc34)n2)cc(C(F)(F)F)c1")
31
>>> measured_value("Cc1ccc(C)c(Oc2ccncc2C(=O)N2CCN(C3CC3)c3ccccc32)c1")
11
>>> measured_value("Cl.O=C(O)c1cc(-c2ccc(C3CCNCC3)cc2)c2ccc(-c3ccc(C(F)(F)F)cc3)cc2c1")
37
>>> measured_value("CNC(=O)c1ccc(Nc2ncc(C(F)(F)F)c(NCc3nccnc3N(C)S(C)(=O)=O)n2)cc1 [DEFACTINIB]")
72
>>> measured_value("CNC(=O)Nc1ccc(-c2nc(N3CC4CCC(C3)O4)c3cnn(C4CCC5(CC4)OCCO5)c3n2)cc1")
23
>>> measured_value("CNC(=O)Nc1ccc2c(c1)[C@@]1(CC2)OC(=O)N(CC(=O)N(Cc2ccc(F)cc2)[C@@H](C)C(F)(F)F)C1=O [A-486]")
85
>>> measured_value("Cc1ccc2c(c1)c1c(n2CCc2ccc(C)nc2)CCN(C)C1 [LATREPIRDINE]")
10
>>> measured_value("Cc1nc(N2CC[C@H](O)C2)ncc1-c1cc(C(F)(F)F)cc2[nH]ncc12")
75
>>> measured_value("CC(C)NC(=O)N1CC[C@H](NC2=Nc3cc(F)ccc3N(CC(F)F)c3ccc(Cl)cc32)C1")
46
>>> measured_value("CC(C)c1noc(N2CCC(COc3ccc(-c4ccc(S(C)(=O)=O)cc4)nc3)CC2)n1 [GSK-1292263]")
50

###

- Test system: HEK-293T
- assay-comment: Multiplex assay against HEK293T
- Assay type: toxicity, cell-based
- condition: human, 24 h, 10 µM, compound concentration 10 uM, replicate 1
measured-parameter: Population Apoptotic (%)

>>> measured_value("CC(C)Oc1ccccc1C(=O)Nc1ccccc1C(=O)Nc1cccc(S(=O)(=O)C(F)(F)F)c1")
61
>>> measured_value("C=CC(=O)Nc1ccc2[nH]c(=O)n(C3CCN(Cc4ccc(-c5nc6cc[nH]c(=O)c6cc5-c5ccccc5)cc4)CC3)c2c1")
34
>>> measured_value("CC(C)OC(=O)N1CCC(Oc2ncnc3c2cnn3-c2ccc(S(C)(=O)=O)cc2F)CC1")
46
>>> measured_value("Cc1nc(N2CC[C@H](O)C2)ncc1-c1cc(C(F)(F)F)cc2[nH]ncc12")
28
>>> measured_value("Cc1ccc2c(c1)c1c(n2CCc2ccc(C)nc2)CCN(C)C1 [LATREPIRDINE]")
90
>>> measured_value("CC(C)NC(=O)N1CC[C@H](NC2=Nc3cc(F)ccc3N(CC(F)F)c3ccc(Cl)cc32)C1")
58
>>> measured_value("CCc1ccc(OCc2ccccc2C(=O)Nc2ccc3nc(C)cc(N)c3c2)cc1.Cl")
44
>>> measured_value("Cc1c[nH]c2nccc(Oc3c(F)cc(Nc4cc(Cl)nc(N)n4)cc3F)c12")
48
>>> measured_value("COc1ccc(-c2ccc3ncc4c(c3c2)n(-c2ccc(N3CCNCC3)c(C(F)(F)F)c2)c(=O)n4C)cn1.O=C(O)/C=C\\C(=O)O")
77
